# System: 885724-159-R-J1-PDC KRAS PDC multicell spheroid viability;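 further: spheroids exposed to agents for 7 days before readout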
# ASSAY TEXT: Anticancer human tumor 885724-159-R-J1-PDC patient-derived pancreatic adenocarcinoma cell line growth inhibition [KRAS2]
# CONDITION CONTEXT: second compound 0.316 µM; first compound 3.16 µM; hits give low values

MOLECULE: CC1COCCN1c1cc(-c2ccnn2C)c2ccnc(-c3ccn[nH]3)c2n1 (stereo not given) + CC1OCC2(CCN(c3cnc(Sc4ccnc(N)c4Cl)c(N)n3)CC2)C1N
viability, T/C (%): 49.8
//
MOLECULE: COc1cc2nccc(Oc3ccc(NC(=O)C4(C(=O)Nc5ccc(F)cc5)CC4)cc3)c2cc1OC + C=CC(=O)N1CCN(c2nc(=O)n(-c3c(C)ccnc3C(C)C)c3nc(-c4c(O)cccc4F)c(F)cc23)C(C)C1
viability, T/C (%): 90.4
//
MOLECULE: CC1COCCN1c1cc(-c2ccnn2C)c2ccnc(-c3ccn[nH]3)c2n1 (stereo not given) + CNCc1ccccc1-c1csc(C(C)Nc2nc(C)nc3cc(OC)c(OC)cc23)c1
viability, T/C (%): 57.4
//
MOLECULE: O=C(c1cc(Cc2n[nH]c(=O)c3ccccc23)ccc1F)N1CCN(C(=O)C2CC2)CC1 + CC1OCC2(CCN(c3cnc(Sc4ccnc(N)c4Cl)c(N)n3)CC2)C1N
viability, T/C (%): 104
//
MOLECULE: COc1cc(Nc2ncc3c(n2)-c2ccc(Cl)cc2C(c2c(F)cccc2OC)=NC3)ccc1C(=O)O + CNCc1ccccc1-c1csc(C(C)Nc2nc(C)nc3cc(OC)c(OC)cc23)c1
viability, T/C (%): 81
//
MOLECULE: COC(=O)c1ccc2c(C(=Nc3ccc(N(C)C(=O)CN4CCN(C)CC4)cc3)c3ccccc3)c(O)[nH]c2c1 + C=CC(=O)N1CCN(c2nc(OCC3CCCN3C)nc3c2CCN(c2cccc4cccc(C)c24)C3)CC1CC#N
viability, T/C (%): 11.3
//
MOLECULE: CC(=O)OC12COC1CC(O)C1(C)C(=O)C(O)C3=C(C)C(OC(=O)C(O)C(NC(=O)OC(C)(C)C)c4ccccc4)CC(O)(C(OC(=O)c4ccccc4)C21)C3(C)C (stereo not given) + C=CC(=O)N1CCN(c2nc(OCC3CCCN3C)nc3c2CCN(c2cccc4cccc(C)c24)C3)CC1CC#N
viability, T/C (%): 103
//
MOLECULE: CC(=O)OC12COC1CC(O)C1(C)C(=O)C(O)C3=C(C)C(OC(=O)C(O)C(NC(=O)OC(C)(C)C)c4ccccc4)CC(O)(C(OC(=O)c4ccccc4)C21)C3(C)C (stereo not given) + C=CC(=O)N1CCN(c2nc(=O)n(-c3c(C)ccnc3C(C)C)c3nc(-c4c(O)cccc4F)c(F)cc23)C(C)C1
viability, T/C (%): 112
//
MOLECULE: CC(C)NCC(C(=O)N1CCN(c2ncnc3c2C(C)CC3O)CC1)c1ccc(Cl)cc1 (stereo not given) + COc1cc2nc(C)nc(NC(C)c3cc(N)cc(C(F)(F)F)c3)c2cc1OC1CCOC1
viability, T/C (%): 75.7
//
MOLECULE: COc1cc(Nc2ncc3c(n2)-c2ccc(Cl)cc2C(c2c(F)cccc2OC)=NC3)ccc1C(=O)O + C=CC(=O)N1CCN(c2nc(OCC3CCCN3C)nc3c2CCN(c2cccc4cccc(C)c24)C3)CC1CC#N
viability, T/C (%): 76.6

Recorded values, source PubChem BioAssay AID1963861.
